# IC50 (cell viability) per record follows
test system: KG-1; conditions: 72 h
The reply should contain only the number, in µM.

- compound: "CC(=O)Nc1nc(C)c(-c2ccc(Cl)c(S(=O)(=O)NCCO)c2)s1 [PIK93]"
  measurement unit: "µM"
  assay result: 2.56

I'd like to know its IC50 (cell viability). The compound in question is C=CCN(C)CCCCCCOc1ccc(C(=O)c2ccc(Br)cc2)c(F)c1.O=C(O)/C=C/C(=O)O [Ro 48-8071 fumarate]
6.11

* * *

system: LAMA-84; test: cell viability (% survival relative to DMSO control, bortezomib = 0%); higher = less cytotoxic; conditions: 1000 nM; 72 h
Note to self: cell viability under 90% means Satisfied, ties and anything higher get Not satisfied.

Solved entries:
- molecule: "Cc1cc(C(=O)NNCc2ccccc2)no1"
  class name: "Not satisfied"
- molecule: "CCCCCOC(=O)Nc1nc(=O)n([C@@H]2O[C@H](C)[C@@H](O)[C@H]2O)cc1F"
  class name: "Not satisfied"
- molecule: "CC/C=C\\C[C@H]1C(=O)CC[C@@H]1CC(=O)OC [Methyl jasmonate]"
  class name: "Not satisfied"
- molecule: "CO[C@H]1C[C@@H]2CC[C@@H](C)[C@@](O)(O2)C(=O)C(=O)N2CCCC[C@H]2C(=O)O[C@H]([C@H](C)C[C@@H]2CC[C@@H](OC(=O)C(C)(CO)CO)[C@H](OC)C2)CC(=O)[C@H](C)/C=C(\\C)[C@@H](O)[C@@H](OC)C(=O)[C@H](C)C[C@H](C)/C=C/C=C/C=C/1C"
  class name: "Satisfied"

Okay, next one:
Check if cell viability falls below 90% for O=c1cc(-c2ccccc2)oc2c1ccc1ccccc12 .
Not satisfied

* * *

test system: MOLM-13; assay: cell viability (% survival relative to DMSO control, bortezomib = 0%); higher = less cytotoxic; conditions: 1000 nM; 72 h
readout: cell viability (%)
The reply should contain only the number, in %.

The following molecules have reported results that may help.
- smiles notation: "Cn1cc(-c2ccncc2)c(-c2ccc(OCc3ccc4ccccc4n3)cc2)n1"
  assay result: 69.4
- smiles notation: "CO[C@H]1C[C@@H]2CC[C@@H](C)[C@@](O)(O2)C(=O)C(=O)N2CCCC[C@H]2C(=O)O[C@H]([C@H](C)C[C@@H]2CC[C@@H](OCCO)[C@H](OC)C2)CC(=O)[C@H](C)/C=C(\\C)[C@@H](O)[C@@H](OC)C(=O)[C@H](C)C[C@H](C)/C=C/C=C/C=C/1C"
  assay result: 29.7

I'd like to know its cell viability. The molecule in question is Cc1[nH]nc(C(F)(F)F)c1Cc1sc2c(c1C(=O)N1C[C@](C)(O)CO1)c(=O)n(C)c(=O)n2C(C)C
105

* * *

test system: myeloid leukemia patient primary cells Pat.2; assay: cell viability (% survival relative to DMSO control); higher = less cytotoxic; conditions: 100 nM; 72 h
readout: cell viability (%)
The reply should contain only the number, in %.

The following compounds have reported results that may help.
- compound: "CO[C@H]1C[C@@H]2CC[C@@H](C)[C@@](O)(O2)C(=O)C(=O)N2CCCC[C@H]2C(=O)O[C@H]([C@H](C)C[C@@H]2CC[C@@H](OCCO)[C@H](OC)C2)CC(=O)[C@H](C)/C=C(\\C)[C@@H](O)[C@@H](OC)C(=O)[C@H](C)C[C@H](C)/C=C/C=C/C=C/1C [Everolimus]"
  assay result: 74.4
- compound: "O=c1cc(N2CCOCC2)oc2c(-c3ccccc3)cccc12"
  assay result: 99.7
- compound: "CO[C@H]1C[C@@H]2CC[C@@H](C)[C@@](O)(O2)C(=O)C(=O)N2CCCC[C@H]2C(=O)O[C@H]([C@H](C)C[C@@H]2CC[C@@H](OC(=O)C(C)(CO)CO)[C@H](OC)C2)CC(=O)[C@H](C)/C=C(\\C)[C@@H](O)[C@@H](OC)C(=O)[C@H](C)C[C@H](C)/C=C/C=C/C=C/1C [Temsirolimus]"
  assay result: 69.6
- compound: "O=C1C(SCCO)=C(SCCO)C(=O)c2ccccc21"
  assay result: 97.1

I'd like to know its cell viability. The compound in question is c1cc(-c2cnn3cc(-c4ccc(OCCN5CCCCC5)cc4)cnc23)ccn1 [Dorsomorphin]
92.5

I'd like to know its cell viability. The compound in question is C[C@]12C=CC(=O)C=C1CC[C@@H]1[C@@H]2[C@@H](O)C[C@@]2(C)[C@H]1CC[C@]2(O)C(=O)CO [Prednisolone]
87.2

I'd like to know its cell viability. The compound in question is CC(C)(C)c1ccc(S(=O)(=O)NCc2ccc(C(=O)Nc3cccnc3)cc2)cc1 [STF-31]
84.9

I'd like to know its cell viability. The compound in question is CC(=O)Nc1nc(C)c(-c2ccc(Cl)c(S(=O)(=O)NCCO)c2)s1 [PIK93]
95.8
